From: patent US6420558B1

Target Under Test: integrin α5β1 (fibronectin receptor purified from the human placenta) (Homo sapiens, UniProt P05556+P08648)
Construct: a fibronectin receptor (protein content: 52.1 μg/ml) purified from the human placenta
Sequence (P08648 42-894 limits assumed): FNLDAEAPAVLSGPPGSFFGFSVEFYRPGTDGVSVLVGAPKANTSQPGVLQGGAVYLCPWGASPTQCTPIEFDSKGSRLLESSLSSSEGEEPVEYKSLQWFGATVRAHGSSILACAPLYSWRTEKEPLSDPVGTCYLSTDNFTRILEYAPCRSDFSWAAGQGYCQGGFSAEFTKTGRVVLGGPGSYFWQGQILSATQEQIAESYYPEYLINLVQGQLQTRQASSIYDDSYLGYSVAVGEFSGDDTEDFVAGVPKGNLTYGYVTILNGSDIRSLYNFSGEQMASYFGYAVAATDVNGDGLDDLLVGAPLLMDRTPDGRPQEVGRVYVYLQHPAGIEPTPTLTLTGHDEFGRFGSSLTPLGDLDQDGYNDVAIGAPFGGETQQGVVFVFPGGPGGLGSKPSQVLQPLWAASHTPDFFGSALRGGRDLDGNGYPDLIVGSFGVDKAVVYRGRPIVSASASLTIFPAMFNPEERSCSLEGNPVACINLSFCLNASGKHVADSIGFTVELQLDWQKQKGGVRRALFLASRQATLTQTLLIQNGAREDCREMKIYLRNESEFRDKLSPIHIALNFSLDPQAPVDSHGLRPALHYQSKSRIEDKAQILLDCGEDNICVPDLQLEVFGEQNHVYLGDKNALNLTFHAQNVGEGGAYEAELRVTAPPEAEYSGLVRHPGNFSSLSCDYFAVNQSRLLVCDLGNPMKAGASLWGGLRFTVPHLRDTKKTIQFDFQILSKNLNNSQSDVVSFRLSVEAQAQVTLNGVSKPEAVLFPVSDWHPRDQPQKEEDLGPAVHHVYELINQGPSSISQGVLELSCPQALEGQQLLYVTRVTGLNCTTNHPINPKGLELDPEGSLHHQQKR
Sequence (P08648 895-1049 limits assumed): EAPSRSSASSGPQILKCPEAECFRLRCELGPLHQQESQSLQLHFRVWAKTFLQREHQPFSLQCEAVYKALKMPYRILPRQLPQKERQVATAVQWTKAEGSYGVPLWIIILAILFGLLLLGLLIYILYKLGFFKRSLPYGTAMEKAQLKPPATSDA
Sequence (P05556 21-798): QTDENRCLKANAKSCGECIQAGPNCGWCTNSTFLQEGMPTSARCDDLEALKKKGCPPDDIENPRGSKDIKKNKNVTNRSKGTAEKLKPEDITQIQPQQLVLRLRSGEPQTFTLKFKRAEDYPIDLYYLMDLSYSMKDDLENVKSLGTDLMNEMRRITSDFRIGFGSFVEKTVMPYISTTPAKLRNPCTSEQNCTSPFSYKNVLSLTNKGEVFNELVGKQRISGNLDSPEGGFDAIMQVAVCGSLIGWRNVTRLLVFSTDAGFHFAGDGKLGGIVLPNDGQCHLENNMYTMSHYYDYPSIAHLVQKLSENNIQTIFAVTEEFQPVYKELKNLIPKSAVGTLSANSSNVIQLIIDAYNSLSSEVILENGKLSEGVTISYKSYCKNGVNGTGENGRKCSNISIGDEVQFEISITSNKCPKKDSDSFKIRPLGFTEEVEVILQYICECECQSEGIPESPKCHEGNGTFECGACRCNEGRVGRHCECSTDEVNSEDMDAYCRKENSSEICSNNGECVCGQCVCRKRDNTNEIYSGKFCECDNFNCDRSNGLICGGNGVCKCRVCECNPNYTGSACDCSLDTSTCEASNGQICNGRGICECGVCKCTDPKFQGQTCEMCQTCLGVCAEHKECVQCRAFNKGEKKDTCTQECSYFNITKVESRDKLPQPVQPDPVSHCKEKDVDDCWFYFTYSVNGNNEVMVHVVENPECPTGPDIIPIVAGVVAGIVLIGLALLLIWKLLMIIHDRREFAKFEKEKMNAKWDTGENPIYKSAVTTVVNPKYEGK
Procedure Summary: α5β1 binding assay (fibronectin-fibronectin receptor binding assay)
Experimental Conditions: fibronectin binding to human placenta fibronectin receptor; read-out: α5β1 Binding inhibitory activity
Assay Readout: IC50 (nM)

Here are 3 molecules together with their reported answers.
>>> print(df.to_string())
                              sample_smiles  reading
0  CCCCS(=O)(=O)N[C@@H](CNC(=O)c1ccc(N2CCC(Nc3nc4ccccc4[nH]3)CC2)cc1)C(=O)O     1300
1  O=C(N[C@@H](CNC(=O)c1ccc(N2CCC(Nc3nc4ccccc4[nH]3)CC2)cc1)C(=O)O)OCc1ccccc1     6900
2  O=C(NC[C@H](NS(=O)(=O)c1ccccc1)C(=O)O)c1ccc(N2CCC(NC3=NCCCN3)CC2)cc1     1600

1 = O=C(NC[C@H](NS(=O)(=O)c1ccccc1)C(=O)O)c1ccc(N2CCC(Nc3nc4ccccc4[nH]3)CC2)cc1
2 = Nc1ccc(S(=O)(=O)N[C@@H](CNC(=O)c2ccc(N3CCC(NC4=NCCCN4)CC3)c(F)c2)C(=O)O)cc1
Parameter metric = IC50. Return the lower-valued option from 1 and 2 . Indicate your choice by writing its label. 1
